System: pigweed (Amaranthus retroflexus)
METHOD_DESCRIPTION: Test A preemergence
Type: in vivo
CONDITION_LABEL: Preemergence, 500 g ai/ha, visual injury approx. 10 d
MEASUREMENT_NAME: Pigweed plant response rating (0 to 100 scale, 0 is no effect, 100 is complete control)

> print(dat)
                                    compound  reading
 1  O=C1NCC(c2cc(F)cc(C(F)(F)F)c2)C1C(=O)Nc1ccccc1F (centres unmarked)       40
 2  C=C(Cl)CN1CC(c2cccc(C(F)(F)F)c2)C(C(=O)Nc2cccc(F)c2F)C1=O (centres unmarked)        0
 3  COc1ccc(NC(=O)C2C(=O)NCC2c2ccc(F)c(F)c2)c(F)c1 (centres unmarked)        0
 4  COCc1cccc(C2CNC(=O)C2C(=O)Nc2ccccc2F)c1 (centres unmarked)        0
 5  O=C1NCC(c2ccnc(C(F)(F)F)c2)C1C(=O)Nc1ccccc1F (racemic)        0
 6  Cc1cccc(NC(=O)C2C(=O)NCC2c2cccc(OC(F)F)c2)c1F (centres unmarked)       30
 7  CN1CC(c2ccc(C(F)(F)F)cc2F)C(C(=O)Nc2ccc(F)cc2F)C1=O (centres unmarked)       90
 8  CN1CC(c2ccc(OC(F)F)cc2)C(C(=O)Nc2cccc(F)c2F)C1=O (centres unmarked)       90
 9  CN1CC(c2ccc3c(c2)OC(F)(F)O3)C(C(=O)Nc2cccc(F)c2F)C1=O (centres unmarked)       80
10  CN1CC(c2cccc(C(F)(F)F)c2)C(C(=O)Nc2cccc(C#N)c2F)C1=O (centres unmarked)       80
11  O=C1NCC(c2cc(Br)cs2)C1C(=O)Nc1cccc(F)c1F (racemic)        0
12  O=C1NCC(c2ccsc2Cl)C1C(=O)Nc1ccccc1F (centres unmarked)        0
13  COc1ccc(NC(=O)C2C(=O)NCC2c2cccc(OC(F)F)c2)c(F)c1 (centres unmarked)        0
14  CN1CC(c2ccc(Cl)cc2)C(C(=O)Nc2cccc(F)c2F)C1=O (centres unmarked)       90

----------
System: foxtail, giant (giant foxtail, Setaria faberii)
METHOD_DESCRIPTION: Test C preemergence
Type: in vivo
CONDITION_LABEL: 125 g ai/ha, scale 0 to 100, 0 no effect, 100 complete control
Listed next: entries and their corresponding Plant response rating, Foxtail, Giant.
MEASUREMENT_NAME: Plant response rating, Foxtail, Giant

> print(dat)
                                   compound                               test.target  reading
1  CC(C)Oc1cccc(C2CN(C)C(=O)C2C(=O)Nc2ccccc2S(C)(=O)=O)c1 (stereo not shown)  foxtail, giant (giant foxtail, Setaria faberii)       95
2  CN1CC(c2cccc(OC(F)F)c2)C(C(=O)Nc2ccc(F)cc2F)C1=O (stereo not shown)  foxtail, giant (giant foxtail, Setaria faberii)       95
3  CC(C)Oc1cccc(C2CN(C)C(=O)C2C(=O)Nc2cccc(F)c2F)c1 (stereo not shown)  foxtail, giant (giant foxtail, Setaria faberii)       98
4  CN1CC(c2cccc(OC(F)(F)C(F)F)c2)C(C(=O)Nc2cccc(F)c2F)C1=O (stereo not shown)  foxtail, giant (giant foxtail, Setaria faberii)       95
5  Cc1ccc(C2CN(C)C(=O)C2C(=O)Nc2ccccc2S(C)(=O)=O)cc1 (stereo not shown)  foxtail, giant (giant foxtail, Setaria faberii)       98
6  CN1CC(c2cc(F)cc(F)c2)C(C(=O)Nc2cccc(F)c2F)C1=O (stereo not shown)  foxtail, giant (giant foxtail, Setaria faberii)       98
7  CN1CC(c2ccc(F)c(C(F)(F)F)c2)C(C(=O)Nc2ccccc2S(C)(=O)=O)C1=O (stereo not shown)  foxtail, giant (giant foxtail, Setaria faberii)       95
